pKi: −log10 of the molar value.
Study the reported pKi values for Tyrosine-protein kinase Lck (Homo sapiens, UniProt P06239) given below; they originate from different publications.

In [3]: df
Out[3]:
                                   compound  readout_value
0  Clc1cccc(Cl)c1Nc1nn(CCC2CCNCC2)c2nc(Nc3ccccc3)ncc12         > 8.00

Which pKi is listed for `CSc1sc(-c2ccnc(Nc3cccc(OCCCN4CCNCC4)c3)n2)c(C2CCCCC2)c1C#N` ?
> 7.00

Which pKi is listed for CCN(CC)CC(O)CCn1nc(Nc2c(C)cccc2C)c2cnc(Nc3ccccc3)nc21 (stereo not shown) ?
> 8.00

Which pKi is listed for O=S(=O)(NCCN1CCOCC1)c1ccc(-c2[nH]c3ncnc(NCC4CCCO4)c3c2-c2ccccc2)cc1 (stereo not shown) ?
> 8.00

###

Study the reported Ki values for Tyrosine-protein kinase Lck (Homo sapiens) given below; they originate from different publications.

>>> print(df.to_string())
                                   molecule  readout_value
0  CN(C)CCOc1ccc(-c2[nH]c3ncnc(NC[C@H]4CCC[C@H]4NS(C)(=O)=O)c3c2-c2ccccc2)cc1 (relative stereo)        < 10 nM

Which Ki is listed for `CCN(CC)CCC(=O)Nc1cccc(Nc2nccc(-c3sc(SC)c(C#N)c3-c3cccnc3)n2)c1` ?
< 100 nM

Which Ki is listed for CCN(CC)S(=O)(=O)c1ccc(-c2[nH]c3ncnc(NCC4CCCO4)c3c2-c2ccccc2)cc1 (stereo not shown) ?
< 10 nM

Which Ki is listed for `CSc1sc(-c2nc(Nc3cccc(OCCCN4CCNCC4)c3)ncc2C)c(-c2cccnc2)c1C#N` ?
< 100 nM

Which Ki is listed for `COC(C)(C)CCn1nc(Nc2c(C)cccc2C)c2cnc(Nc3ccc(OCCCN4CCCCC4)c(F)c3)nc21` ?
10 to 100 nM

Which Ki is listed for `CSc1sc(-c2ccnc(Nc3cccc(OCCCN4CCC(CO)CC4)c3)n2)c(C2CCCCC2)c1C#N` ?
< 100 nM

Which Ki is listed for `Cc1cccc(C)c1Nc1nn(CCCN2CCCCC2)c2nc(Nc3ccc(N4CCNCC4)cc3)ncc12` ?
< 10 nM
